Where do these numbers come from? They come from the supplement of paper PMC11732987.

Molecular target: UniProt Q5T2D3
Sequence (whole entry): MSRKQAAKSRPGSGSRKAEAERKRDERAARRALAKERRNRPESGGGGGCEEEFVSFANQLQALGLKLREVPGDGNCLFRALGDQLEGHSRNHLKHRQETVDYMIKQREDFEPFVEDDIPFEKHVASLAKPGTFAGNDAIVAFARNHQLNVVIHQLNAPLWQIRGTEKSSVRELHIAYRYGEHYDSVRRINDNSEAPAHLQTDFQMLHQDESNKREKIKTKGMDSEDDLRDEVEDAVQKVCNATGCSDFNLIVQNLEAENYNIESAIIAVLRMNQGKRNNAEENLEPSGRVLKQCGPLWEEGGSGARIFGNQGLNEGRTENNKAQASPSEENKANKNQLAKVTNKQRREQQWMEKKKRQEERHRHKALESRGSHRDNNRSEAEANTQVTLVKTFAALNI
Test: log2 ratio of Biotin-Ahx-Ub-VS probe labelling (fragment/DMSO); higher = less target engagement (more negative = stronger competition), active = hit call of the paper (q ≤ 0.05, log2 ratio ≤ -1)
Settings: compound concentration: 200 uM; treatment time: 3 h
Exercise: for every item that follows, state its recorded log2 ratio of Biotin-Ahx-Ub-VS probe labelling.
# respond with the number and nothing more

Which log2 ratio of Biotin-Ahx-Ub-VS probe labelling is reported for this compound? O=C(CCl)Nc1cc2c(cc1Cl)OCCO2
-0.437

Which log2 ratio of Biotin-Ahx-Ub-VS probe labelling is reported for this compound? O=C(CCl)N1CCCC1c1ccsc1 (stereo unspecified)
-0.188

Which log2 ratio of Biotin-Ahx-Ub-VS probe labelling is reported for this compound? O=C(CCl)Nc1ccccc1C(F)(F)F
-0.319

Which log2 ratio of Biotin-Ahx-Ub-VS probe labelling is reported for this compound? O=C(CCl)Nc1cccc(C(=O)N2CCSCC2)c1
-0.17

Which log2 ratio of Biotin-Ahx-Ub-VS probe labelling is reported for this compound? NC(=O)C1CCCCN1C(=O)CCl (stereo unspecified)
-0.206

Which log2 ratio of Biotin-Ahx-Ub-VS probe labelling is reported for this compound? Cc1ccc2nnc(CNC(=O)CCl)n2c1
-0.119
